We begin with a simple list: items and their reported inhibition at 1 µM.
- target-of-assay: recombinant human 17β-hydroxysteroid dehydrogenase type 1 (Homo sapiens)
- Construct: made in house; host or cells: Sf9 insect cells (baculovirus, Bac to Bac Expression System)
- assay-procedure: Inhibition of recombinant human 17β-hydroxysteroid dehydrogenase type 1 (conversion of 3H-estrone to estradiol, HPLC)
- Format: biochemical
- recorded-conditions: inhibitor 1 μm; 30 nM 3H-estrone, 1 mM NADPH, 30 min at RT; read-out: Inhibition of rec. 17β-HSD1 (% inhibition), 1 μm
Field: numeric (%). Do not append units.

These recorded examples may help you get a feel for the data.
{"chemical-string": "COc1ccc2c(c1)CC[C@H]1[C@@H]3[C@H](CCC(=O)N4CCOCC4)CC(=O)[C@@]3(C)CC[C@H]21", "unit-name": "%", "inhibition at 1 µM": 74.5}
{"chemical-string": "Cc1cccc(S(=O)(=O)NC[C@H]2CC(=O)[C@@]3(C)CC[C@@H]4c5ccc(O)cc5CC[C@H]4[C@H]23)c1", "unit-name": "%", "inhibition at 1 µM": 83.7}

For the molecule COc1ccc2c(c1)CC[C@H]1[C@@H]3[C@H](CCC(=O)NCCc4cccs4)CC(=O)[C@@]3(C)CC[C@H]21 , what inhibition at 1 µM is on record?
77

###

Measured inhibition at 1 µM, listed per entry.
- target-of-assay: recombinant human 17β-hydroxysteroid dehydrogenase type 1 (Homo sapiens, UniProt P14061)
- Construct: made in house; host or cells: Sf9 insect cells (baculovirus, Bac to Bac Expression System)
- Sequence (P14061 1-328): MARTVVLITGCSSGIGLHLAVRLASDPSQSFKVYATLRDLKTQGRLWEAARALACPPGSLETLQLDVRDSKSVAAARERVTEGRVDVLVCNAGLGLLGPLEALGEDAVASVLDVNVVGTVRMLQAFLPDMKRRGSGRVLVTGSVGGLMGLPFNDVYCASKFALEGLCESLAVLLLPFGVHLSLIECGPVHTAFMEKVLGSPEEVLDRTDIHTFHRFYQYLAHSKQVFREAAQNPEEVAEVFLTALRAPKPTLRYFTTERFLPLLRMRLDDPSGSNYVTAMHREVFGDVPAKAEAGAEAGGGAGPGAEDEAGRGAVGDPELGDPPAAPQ
- assay-procedure: Inhibition of recombinant human 17β-hydroxysteroid dehydrogenase type 1 (conversion of 3H-estrone to estradiol, HPLC)
- Type: biochemical
- recorded-conditions: inhibitor 1 μm; 30 nM 3H-estrone, 1 mM NADPH, 30 min at RT; read-out: Inhibition of rec. 17β-HSD1 (% inhibition), 1 μm
Express the result in % but write the number alone.

Reference set (5 entries):
{"chemical-string": "COc1ccc2c(c1)CC[C@H]1[C@@H]3[C@H](CCCCC(=O)NCc4cccc(F)c4)CC(=O)[C@@]3(C)CC[C@H]21", "inhibition at 1 µM (%)": 89.2}
{"chemical-string": "COc1ccc(NC(=O)NCCC[C@@H]2CC(=O)[C@@]3(C)CC[C@@H]4c5ccc(OC)cc5CC[C@H]4[C@H]23)cc1", "inhibition at 1 µM (%)": 94.2}
{"chemical-string": "CNC(=O)CCC[C@@H]1CC(=O)[C@@]2(C)CC[C@@H]3c4ccc(O)cc4CC[C@H]3[C@H]12", "inhibition at 1 µM (%)": 66}
{"chemical-string": "COc1ccc2c(c1)CC[C@H]1[C@@H]3[C@H](CCCCOC(=O)Nc4cccc([N+](=O)[O-])c4)CC(=O)[C@@]3(C)CC[C@H]21", "inhibition at 1 µM (%)": 65.1}
{"chemical-string": "COc1ccc2c(c1)CC[C@H]1[C@@H]3[C@H](CCCCCC(=O)NC4CCCCC4)CC(=O)[C@@]3(C)CC[C@H]21", "inhibition at 1 µM (%)": 82.4}

Look up inhibition at 1 µM: COc1ccc2c(c1)CC[C@H]1[C@@H]3[C@H](CCCCC(=O)NCc4ccncc4)CC(=O)[C@@]3(C)CC[C@H]21
82.9

###

As shown below, each of these molecules has a reported inhibition at 1 µM value.
- target-of-assay: recombinant human 17β-hydroxysteroid dehydrogenase type 1 (Homo sapiens)
- Construct: made in house; host or cells: Sf9 insect cells (baculovirus, Bac to Bac Expression System)
- assay-procedure: Inhibition of recombinant human 17β-hydroxysteroid dehydrogenase type 1 (conversion of 3H-estrone to estradiol, HPLC)
- Type: biochemical
- recorded-conditions: inhibitor 1 μm; 30 nM 3H-estrone, 1 mM NADPH, 30 min at RT; read-out: Inhibition of rec. 17β-HSD1 (% inhibition), 1 μm
Express the result in % but write the number alone.

Consider the molecule COc1ccc2c(c1)CC[C@H]1[C@@H]3[C@H](CCCCCC(=O)NCc4cccnc4)CC(=O)[C@@]3(C)CC[C@H]21 [Example 356] and give its measured inhibition at 1 µM.
83.9

Lookup C[C@]12CC[C@@H]3c4ccc(O)cc4CC[C@H]3[C@@H]1[C@@H](CNS(=O)(=O)c1ccccc1)CC2=O [Example 664]
92.7

Consider next the molecule COc1ccc2c(c1)CC[C@H]1[C@@H]3[C@H](CCCCCC(=O)NCCc4cccs4)CC(=O)[C@@]3(C)CC[C@H]21 [Example 366] in the same way.
94.4

Now try COc1ccc2c(c1)CC[C@H]1[C@@H]3[C@H](CCCCCC(=O)NCc4ccc5c(c4)OCO5)CC(=O)[C@@]3(C)CC[C@H]21 [Example 353] .
89.5

Subsequent entry: COc1ccc2c(c1)CC[C@H]1[C@@H]3[C@H](CCC(=O)NCc4ccc5c(c4)OCO5)CC(=O)[C@@]3(C)CC[C@H]21 [Example 315]
74.4

Follow-up entry: COc1ccc2c(c1)CC[C@H]1[C@@H]3[C@H](CCCCCC(=O)NCc4ccccc4)CC(=O)[C@@]3(C)CC[C@H]21 [Example 359]
88.3

###

- target-of-assay: recombinant human 17β-hydroxysteroid dehydrogenase type 1 (Homo sapiens)
- Construct: made in house; host or cells: Sf9 insect cells (baculovirus, Bac to Bac Expression System)
- assay-procedure: Inhibition of recombinant human 17β-hydroxysteroid dehydrogenase type 1 (conversion of 3H-estrone to estradiol, HPLC)
- Assay type: biochemical
- recorded-conditions: inhibitor 100 nM; 30 nM 3H-estrone, 1 mM NADPH, 30 min at RT; read-out: Inhibition of rec. 17β-HSD1 (% inhibition), 100 nM
Lab note: anything with inhibition at 0.1 µM at or over 40% counts as true (1); the rest go in false (0).

Record excerpt, results attached:
{"compound": "CN(C[C@H]1CC(=O)[C@@]2(C)CC[C@@H]3c4ccc(O)cc4CC[C@H]3[C@H]12)S(=O)(=O)c1ccccc1", "label-value": "false (0)"}
{"compound": "C[C@]12CC[C@@H]3c4ccc(O)cc4CC[C@H]3[C@@H]1[C@@H](CCCC(=O)N1CCOCC1)CC2=O", "label-value": "false (0)"}
{"compound": "C[C@]12CC[C@@H]3c4ccc(O)cc4CC[C@H]3[C@@H]1[C@@H](CNS(=O)(=O)c1ccccc1)CC2=O", "label-value": "true (1)"}
{"compound": "COc1ccc2c(c1)CC[C@H]1[C@@H]3[C@H](CCCOC(=O)Nc4ccc(C(F)(F)F)cc4)CC(=O)[C@@]3(C)CC[C@H]21", "label-value": "false (0)"}
{"compound": "COc1ccc2c(c1)CC[C@H]1[C@@H]3[C@H](CCCC(=O)NCc4ccco4)CC(=O)[C@@]3(C)CC[C@H]21", "label-value": "false (0)"}

Test whether the compound CCCCNC(=O)CCCCC[C@@H]1CC(=O)[C@@]2(C)CC[C@@H]3c4ccc(OC)cc4CC[C@H]3[C@H]12 records inhibition at 0.1 µM of 40% or higher.
false (0)

Item: COc1ccc2c(c1)CC[C@H]1[C@@H]3[C@H](CCCCC(=O)NCc4ccccc4OC)CC(=O)[C@@]3(C)CC[C@H]21
false (0)

Request: COc1ccc2c(c1)CC[C@H]1[C@@H]3[C@H](CCCC(=O)NCc4ccccc4)CC(=O)[C@@]3(C)CC[C@H]21
true (1)

Check COc1ccc2c(c1)CC[C@H]1[C@@H]3[C@H](CCCCCC(=O)N4CCSCC4)CC(=O)[C@@]3(C)CC[C@H]21 too.
false (0)

Try this compound next: C[C@]12CC[C@@H]3c4ccc(O)cc4CC[C@H]3[C@@H]1[C@@H](CNS(=O)(=O)c1cc(S(=O)(=O)c3ccccc3)cs1)CC2=O
false (0)

Entry to check: COc1ccc2c(c1)CCC1C2CC[C@]2(C)C(=O)C[C@@H](CCCC(=O)NCCc3c[nH]c4c(C)cccc34)C12 (stereo partly drawn)
true (1)

Item: COc1ccc2c(c1)CC[C@H]1[C@@H]3[C@H](CCCNC(=O)NC4CCCCC4)CC(=O)[C@@]3(C)CC[C@H]21
false (0)

Param item: C[C@]12CC[C@@H]3c4ccc(O)cc4CC[C@H]3[C@@H]1[C@@H](CCCCNC(=O)NCC1CCCCC1)CC2=O
true (1)

Please answer likewise for COc1ccc2c(c1)CC[C@H]1[C@@H]3[C@H](CCCCCC(=O)N(C)Cc4ccccc4)CC(=O)[C@@]3(C)CC[C@H]21
true (1)

Request: COc1ccc2c(c1)CC[C@H]1[C@@H]3[C@H](CCC(=O)N4CCOCC4)CC(=O)[C@@]3(C)CC[C@H]21
false (0)

And then COc1ccc2c(c1)CC[C@H]1[C@@H]3[C@H](CCCCCC(=O)NCCc4cccs4)CC(=O)[C@@]3(C)CC[C@H]21 , what is it?
true (1)

Please answer likewise for COc1ccc2c(c1)CC[C@H]1[C@@H]3[C@H](CCCCOC(=O)Nc4cccc(F)c4)CC(=O)[C@@]3(C)CC[C@H]21
false (0)

Also check COc1ccc2c(c1)CC[C@H]1[C@@H]3[C@H](CCCCNC(=O)NCc4ccccc4)CC(=O)[C@@]3(C)CC[C@H]21
false (0)

Note, next up: Cc1cccc2c(CCNC(=O)CCC[C@@H]3CC(=O)[C@@]4(C)CC[C@@H]5c6ccc(O)cc6CC[C@H]5[C@H]34)c[nH]c12
true (1)

Check COc1ccc2c(c1)CC[C@H]1[C@@H]3[C@H](CCCNC(=O)Nc4cccc5ccccc45)CC(=O)[C@@]3(C)CC[C@H]21 too.
false (0)

Now try COc1ccc2c(c1)CC[C@H]1[C@@H]3[C@H](CCCCCC(=O)NCc4ccccc4OC)CC(=O)[C@@]3(C)CC[C@H]21 .
true (1)

// query: C[C@]12CC[C@@H]3c4ccc(O)cc4CC[C@H]3[C@@H]1[C@@H](CNS(=O)(=O)c1ccc([N+](=O)[O-])cc1)CC2=O
false (0)

# iterate: COc1ccc2c(c1)CC[C@H]1[C@@H]3[C@H](CCCCCC(=O)NCc4ccc(Cl)cc4)CC(=O)[C@@]3(C)CC[C@H]21
false (0)
